Reference source for all entries: patent US20070292403A1

experimental-details: Example 1: serum creatine levels and brain creatine by magnetic resonance spectroscopy
Format: in vivo, human
recorded-conditions: human, serum, oral; 8 g/day, week 16; baseline 46.4 (SD=35.7); SD=259.9; read-out: Average serum creatine level
outcome-measure: concentration at 16 weeks (µM)
Unit µM implied. Number only.

QUERY: What value of concentration at 16 weeks has been recorded for this entry: CN(CC(=O)O)C(=N)N [Creatine, creatine monohydrate]
RESULT: 382

====

experimental-details: Example 1: serum creatine levels and brain creatine by magnetic resonance spectroscopy
Type: in vivo, human
recorded-conditions: human, serum, oral; at washout after 8 g/day for 16 weeks; SD=29.5; read-out: Average serum creatine level
outcome-measure: concentration at 24 weeks
Put your answer as a value accompanied by its unit after it.

QUERY: What value of concentration at 24 weeks has been recorded for this entry: CN(CC(=O)O)C(=N)N [Creatine, creatine monohydrate]
RESULT: 51.8 µM
